measuredOn: Cdc42^2-178 (C-terminally truncated Cdc42 lacking its geranylgeranylation motif) (UniProt Q05062 2-178)
Sequence (Q05062 2-178): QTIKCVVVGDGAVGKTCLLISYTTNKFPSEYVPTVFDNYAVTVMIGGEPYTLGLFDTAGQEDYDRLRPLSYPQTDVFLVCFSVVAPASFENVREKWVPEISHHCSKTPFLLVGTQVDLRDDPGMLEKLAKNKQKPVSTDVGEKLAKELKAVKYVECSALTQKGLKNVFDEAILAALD
procedureDetails: FP; GMPPNP-loaded Cdc42
No end group written: not given here.
measurementType: Kd (µM)
# number only, unit µM dropped from output

q: Given the binder QISTPSDFMHIVHMGPAPVMELQQNFIDLQ (also: FITC label, position not given here) [FITC-labeled CRIB peptide of C. elegans MRCK1 (residues 1543-1572)] , what is its reported Kd?
a: 264
